# target: alpha-Glucosidase (Cat No. 5003-1KU Type I) (Saccharomyces cerevisiae, UniProt P53341)
# Construct: purchased 5003-1KU Type I
# Sequence (P53341 whole entry): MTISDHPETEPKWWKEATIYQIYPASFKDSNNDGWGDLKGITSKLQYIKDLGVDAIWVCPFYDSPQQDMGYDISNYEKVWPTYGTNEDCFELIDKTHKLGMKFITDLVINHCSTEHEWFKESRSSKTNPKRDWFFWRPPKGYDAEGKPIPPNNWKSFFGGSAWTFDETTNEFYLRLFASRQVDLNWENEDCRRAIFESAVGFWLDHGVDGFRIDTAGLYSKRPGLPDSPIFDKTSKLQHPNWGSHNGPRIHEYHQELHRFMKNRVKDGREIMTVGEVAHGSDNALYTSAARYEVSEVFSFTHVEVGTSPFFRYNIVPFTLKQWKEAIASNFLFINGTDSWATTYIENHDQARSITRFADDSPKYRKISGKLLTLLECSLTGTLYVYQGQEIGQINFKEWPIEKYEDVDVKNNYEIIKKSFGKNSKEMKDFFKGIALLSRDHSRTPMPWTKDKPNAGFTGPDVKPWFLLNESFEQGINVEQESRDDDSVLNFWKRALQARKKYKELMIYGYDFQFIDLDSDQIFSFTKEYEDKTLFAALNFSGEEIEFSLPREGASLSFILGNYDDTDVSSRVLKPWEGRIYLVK
# test_description: biochemical
# conditions_used: pH 6.8, read-out: % Inhibition at 0.5 mM
quantity_kind: inhibition at 500 µM (%)

compound	quantity_kind	unit_spec	test_result
CCCCn1nnc2ccc(N)cc2c1=O [Compound 11b]	inhibition at 500 µM	%	27.1
CCCn1nnc2ccc(NS(=O)(=O)c3ccc(OC)cc3)cc2c1=O [Compound 12b]	inhibition at 500 µM	%	91.7
CCCn1nnc2ccc(NS(=O)(=O)c3ccc([N+](=O)[O-])cc3)cc2c1=O [Compound 12e]	inhibition at 500 µM	%	96.3
CCCn1nnc2ccc(N)cc2c1=O [Compound 11a]	inhibition at 500 µM	%	26.1
CCCn1nnc2ccc(NS(=O)(=O)c3ccc(Br)cc3)cc2c1=O [Compound 12d]	inhibition at 500 µM	%	79.4
CCCn1nnc2ccc(NS(=O)(=O)c3ccc(Cl)cc3)cc2c1=O [Compound 12c]	inhibition at 500 µM	%	78.1
CCCCn1nnc2ccc(NS(=O)(=O)c3ccc([N+](=O)[O-])cc3)cc2c1=O [Compound 12f]	inhibition at 500 µM	%	93.3
CCCn1nnc2ccc(NS(=O)(=O)c3ccccc3)cc2c1=O [Compound 12a]	inhibition at 500 µM	%	51.2
